test system: SNB-75 CNS; assay: NCI-60 one-dose screen, 48 h (100 = growth as untreated, 0 = no growth, -100 = all killed); settings: 10 µM unless noted
Compounds without any hit were thinned out: in the full panel of roughly 83,000, 20% have a hit.
Decision: growth beneath 80% gives Met; growth meeting or exceeding 80% gives Not met.

Would you please look over these solved cases?
>>> class_name("CCCCCCOc1ccc(C2(Cl)c3ccccc3N(C)c3ccccc32)cc1")
"Met"
>>> class_name("CC[C@H](C)[C@H]1NC(=O)[C@@H](N[C@](C)(O)[C@@H](N)CC(C)C)[C@@H](C)OC(=O)[C@H](Cc2ccc(OC)cc2)N(C)C(=O)[C@@H]2CCCN2C(=O)[C@H](CC(C)C)NC(=O)[C@@H](C)C(=O)[C@H](C(C)C)OC(=O)C[C@@H]1O")
"Met"
>>> class_name("Cc1cc(NC(=O)COC(=O)c2sc3cc(F)ccc3c2Cl)no1")
"Not met"
>>> class_name("COc1cc(NS(C)(=O)=O)ccc1Nc1c2ccc([N+](=O)[O-])cc2nc2c(C)cccc12")
"Met"

Now consider a different molecule.
Does O=c1oc2c([nH]c3ccc4ccccc4c32)c2ccccc12 have growth strictly under 80%? Not met
